Measured RP-LC retention time of individual entries
- Assay name: gradient 5% acetonitrile 3 min, to 50% in 2 min, to 85% in 15 min, held 3 min, 100 µL/min
- Experimental conditions: column: Zorbax Extend-C18 2.1 x 50 mm; eluents: water / acetonitrile, 0.1% formic acid

Molecule	RP-LC retention time [s]
O=C(NCC1CCOCC1)c1ccccc1Br	671
COc1ccc(NC(=O)c2ccc3c(c2)OCCO3)c([N+](=O)[O-])c1	874
CCc1ccccc1NC(=O)C1CCCN(S(=O)(=O)c2ccc(OC)c(C)c2)C1 (configuration not stated)	1020
Cc1cccc(-c2nc(N3CC4(C)CC3CC(C)(C)C4)c3ccccc3n2)c1 (configuration not stated)	1060
CNC(=O)N1CCCC(c2cccc(C(=O)N3CCN(c4ccccc4Cl)CC3)c2)C1 (configuration not stated)	904
Cc1ccccc1OCC(=O)NCC1CC(=O)N(c2ccccc2)C1 (configuration not stated)	741
CN1CCc2nnc(C3CCCN3C(=O)Nc3ccc(Cl)cc3C(F)(F)F)n2CC1 (configuration not stated)	594
O=S(=O)(NCCN1CCN(c2ccc(Cl)cc2)CC1)c1ccc2c(c1)OCCO2	620
O=C(Cc1ccc(F)cc1)N1CCN(c2cc(-c3cccs3)[nH]n2)CC1	782
CCCNC(=O)CCc1nc2ccccc2n(CC(=O)NCc2ccccc2)c1=O	1270
CN(C)C[C@@H]1CN(c2ncccn2)C[C@H]1NC(=O)NCc1ccco1	550
Cc1ccc(NC(=O)Cn2c(N3CCc4ccccc4C3)nc(C)cc2=O)cc1	810
Cc1ccccc1NC(=O)C1C(=O)N(C)C2(C)CC1c1ccccc1O2 (configuration not stated)	991
O=C(CN1CCc2[nH]c3c(F)c(Cl)ccc3c(=O)c2C1)Nc1cc(F)cc(F)c1	699
O=C(CN1C(=O)CCCc2cc(S(=O)(=O)N3CCCCCC3)ccc21)Nc1cccc(F)c1	988
CCC1=C(c2ccc(C)cc2)S(=O)(=O)N=C1N1CCC(C(=O)N(C)Cc2ccco2)CC1	894
CC(C)N1CCC(CC(=O)N2CCc3c(c(-c4nc(C5CC5)no4)nn3C)C2)CC1	612
CN(C)CCCOc1nn(Cc2ccccc2)c2ccccc12	750
CCN(CC)c1ncc(NC(=O)c2ccc(Br)cc2)cc1C(=O)O	692
Cc1nc(-c2cccnc2)nc2c1CCC(=O)N2Cc1cccnc1	560
CN[C@@H](C)C(=O)N[C@H](C(=O)N1CCC[C@H]1c1nc(C(=O)c2ccc(F)cc2)cs1)C1CCCCC1	787
NC(=O)C1CCN(C(c2ccccc2F)c2sc3nc(-c4ccco4)nn3c2O)CC1 (configuration not stated)	677
